- Test system: human keratinocytes (HaCaT cells)
- protocol_summary: MTT viability assay
- test_conditions: read-out: IC50 (in mM); HaCaT, 24 h, MTT
Answer each item with its documented IC50.

Exercise: Look up IC50: CCOC(=O)[C@@H](N)Cc1ccccc1.O=C(O)c1ccccc1O [[PheOEt][SA], L-phenylalanine ethyl ester salicylate]
Key: ~6.6 mM

Exercise: Look up IC50: CCCCOC(=O)[C@@H](N)C(C)C.O=C(O)c1ccccc1O [[ValOBu][SA], L-valine butyl ester salicylate]
Key: ~1.9 mM

Exercise: Look up IC50: CCOC(=O)[C@@H](N)C(C)C.O=C(O)c1ccccc1O [[ValOEt][SA], L-valine ethyl ester salicylate]
Key: ~2.1 mM

Exercise: Look up IC50: CC(C)OC(=O)[C@@H](N)C(C)C.O=C(O)c1ccccc1O [[ValOiPr][SA], L-valine isopropyl ester salicylate]
Key: ~3.1 mM

Exercise: Look up IC50: CCCOC(=O)[C@@H](N)Cc1ccccc1.O=C(O)c1ccccc1O [[PheOPr][SA], L-phenylalanine propyl ester salicylate]
Key: ~1.9 mM

Exercise: Look up IC50: CCCOC(=O)[C@@H](N)C(C)C.O=C(O)c1ccccc1O [[ValOPr][SA], L-valine propyl ester salicylate]
Key: ~1.8 mM
